STUDY_TARGET: Nrf2-Keap1 (Homo sapiens)
Sequence (Q14145 whole entry): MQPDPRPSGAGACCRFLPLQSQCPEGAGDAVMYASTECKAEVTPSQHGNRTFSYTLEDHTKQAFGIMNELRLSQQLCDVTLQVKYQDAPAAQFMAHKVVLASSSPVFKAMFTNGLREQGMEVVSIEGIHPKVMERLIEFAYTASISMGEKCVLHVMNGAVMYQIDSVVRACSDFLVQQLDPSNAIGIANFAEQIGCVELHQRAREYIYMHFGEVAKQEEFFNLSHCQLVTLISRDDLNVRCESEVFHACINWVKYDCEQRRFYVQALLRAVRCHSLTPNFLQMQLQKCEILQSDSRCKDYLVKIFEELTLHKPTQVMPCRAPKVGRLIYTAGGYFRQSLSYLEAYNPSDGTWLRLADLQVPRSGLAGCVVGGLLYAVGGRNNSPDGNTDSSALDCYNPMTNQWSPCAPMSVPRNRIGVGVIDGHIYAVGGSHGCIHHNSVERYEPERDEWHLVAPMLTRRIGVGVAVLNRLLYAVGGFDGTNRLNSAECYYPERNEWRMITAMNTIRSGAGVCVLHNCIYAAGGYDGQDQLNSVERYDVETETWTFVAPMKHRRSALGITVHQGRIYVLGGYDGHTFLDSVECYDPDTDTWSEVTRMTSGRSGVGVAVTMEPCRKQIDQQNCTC
TEST: DiscoveRx PathHunter Nrf2-Keap1 nuclear translocation functional assay (agonist format)
EXPERIMENTAL_CONTEXT: 10 concentrations, 3-fold serial dilutions, 30 μM top concentration, in duplicate; agonist mode; normalized to CDDO methyl ester and vehicle
ENDPOINT: EC50

Study these solved cases before continuing.
Kindly note the recorded EC50 for C=C1CC[C@@H]2[C@]3(C)COS(=O)O[C@@H]3CC[C@@]2(C)[C@@H]1C/C=C1/C(=O)OC[C@@H]1NC(=O)OC (single isomer, unassigned) , which is 500 to 2000 nM

Kindly note the recorded EC50 for `CO[C@@H]1CC[C@@]2(C)[C@H](C/C=C3/C(=O)OC[C@H]3O)C(C)=CC[C@@H]2[C@H]1C` , which is 500 to 2000 nM

Kindly note the recorded EC50 for `CC1=CC[C@@H]2[C@@H](C)[C@](O)(C(F)(F)F)CC[C@@]2(C)[C@@H]1C/C=C1/C(=O)OC[C@H]1O` , which is > 2000 nM

Kindly note the recorded EC50 for `C=C1CC[C@H]2[C@@](C)(CCC3=NOC[C@]32C)[C@@H]1C/C=C1/C(=O)OC[C@H]1O` , which is 500 to 2000 nM

Kindly note the recorded EC50 for C=C1CC[C@@H]2[C@@H](C)[C@@](O)(C(F)(F)F)CC[C@@]2(C)[C@@H]1C/C=C1/C(=O)OCC1NC=O (single isomer, unassigned) [Example 43A] , which is 500 to 2000 nM

Kindly note the recorded EC50 for C=C1CC[C@@H]2[C@@H](C)[C@](O)(C(F)(F)F)CC[C@@]2(C)[C@@H]1C/C=C1/C(=O)OCC1NC=O (single isomer, unassigned) [Example 44A] , which is > 2000 nM

Next:
Kindly note the recorded EC50 for C=C1CC[C@@H]2[C@]3(C)COS(=O)O[C@@H]3CC[C@@]2(C)[C@@H]1C/C=C1/C(=O)OCC1NC(=O)CO (single isomer, unassigned) [Example 41A] , which is > 2000 nM

Kindly note the recorded EC50 for `C=C1CC[C@H]2[C@@](C)(CC[C@@]3(C)O[S@@](=O)OC[C@@]23C)[C@@H]1C/C=C1/C(=O)OC[C@H]1O` , which is 500 to 2000 nM

Kindly note the recorded EC50 for C=C1CC[C@@H]2[C@]3(C)COCO[C@@H]3CC[C@@]2(C)[C@@H]1C/C=C1/C(=O)OCC1NC(C)=O (single isomer, unassigned) [Example 45A] , which is > 2000 nM

Kindly note the recorded EC50 for `C=C1CC[C@@H]2[C@@H](C)[C@H](OC)CC[C@@]2(C)[C@@H]1C/C=C1/C(=O)OC[C@H]1O` , which is < 500 nM

Kindly note the recorded EC50 for C=C1CC[C@@H]2[C@]3(C)COCO[C@@H]3CC[C@@]2(C)[C@@H]1C/C=C1/C(=O)OCC1NC=O (single isomer, unassigned) [Example 39A] , which is 500 to 2000 nM

Kindly note the recorded EC50 for `CC(=O)N[C@@H]1COC(=O)/C1=C\CC[C@H]1C2(CC[C@H]3C(C)(C)CCC[C@@]31C)CC2` , which is > 2000 nM

* * *

STUDY_TARGET: Nrf2-Keap1 (Homo sapiens)
TEST: DiscoveRx PathHunter Nrf2-Keap1 nuclear translocation functional assay (agonist format)
EXPERIMENTAL_CONTEXT: 10 concentrations, 3-fold serial dilutions, 30 μM top concentration, in duplicate; agonist mode; normalized to CDDO methyl ester and vehicle
Consider the following compounds and their measured EC50 readings.

Kindly note the recorded EC50 for `C=C1CC[C@@H]2[C@@H](C)[C@H](NC)CC[C@@]2(C)[C@@H]1C/C=C1/C(=O)OC[C@H]1O` , which is 500 to 2000 nM

Kindly note the recorded EC50 for `C=C1CC[C@@H]2[C@]3(C)CO[S@@](=O)O[C@@H]3CC[C@@]2(C)[C@@H]1C/C=C1/C(=O)OC[C@H]1O` , which is 500 to 2000 nM

Kindly note the recorded EC50 for C=C1CC[C@@H]2[C@]3(C)COS(=O)O[C@@H]3CC[C@@]2(C)[C@@H]1C/C=C1/C(=O)OCC1NC(=O)COC (single isomer, unassigned) [Example 40B] , which is 500 to 2000 nM

Kindly note the recorded EC50 for `C=C1CC[C@@H]2[C@@H](C)[C@H](O)CC[C@@]2(C)[C@@H]1C/C=C1/C(=O)OC[C@H]1O` , which is < 500 nM

Kindly note the recorded EC50 for `C=C1CC[C@H]2[C@@](C)(CC[C@@]3(C)ON=C[C@@]23C)[C@@H]1C/C=C1/C(=O)OC[C@H]1O` , which is > 2000 nM

Kindly note the recorded EC50 for `C=C1CC[C@@H]2[C@]3(C)CO[S@](=O)O[C@@H]3CC[C@@]2(C)[C@@H]1C/C=C1/C(=O)OC[C@H]1O` , which is 500 to 2000 nM

Now take the following compound into account.
Kindly note the recorded EC50 for C=C1CC[C@@H]2[C@]3(C)COCO[C@@H]3CC[C@@]2(C)[C@@H]1C/C=C1/C(=O)OCC1NC(=O)COC (single isomer, unassigned) [Example 46A] , which is > 2000 nM

* * *

STUDY_TARGET: Nrf2-Keap1 (Homo sapiens)
TEST: DiscoveRx PathHunter Nrf2-Keap1 nuclear translocation functional assay (agonist format)
Format: cell-based
EXPERIMENTAL_CONTEXT: 6 h, single concentration of 10 μM, in duplicate; agonist mode; normalized to control ligand (CDDO methyl ester) and vehicle
ENDPOINT: activation at 10 µM

Kindly note the recorded activation at 10 µM for C=C1CC[C@H]2[C@@](C)(CCC3=NOC[C@]32C)[C@@H]1C/C=C1/C(=O)OC[C@H]1O [Example 11] , which is > 100%

Kindly note the recorded activation at 10 µM for CC1(C)CCC[C@@]2(C)[C@H]1CCC1(CC1)[C@@H]2C/C=C1\C(=O)OC[C@H]1NC=O [Example 25] , which is 51 to 100%

Next:
Kindly note the recorded activation at 10 µM for C=C1CC[C@H]2[C@@](C)(CC[C@](C)(O)[C@@]2(C)CO)[C@@H]1C/C=C1/C(=O)OC[C@H]1O [Example 6] , which is 51 to 100%

* * *

STUDY_TARGET: Nrf2-Keap1 (Homo sapiens)
TEST: DiscoveRx PathHunter Nrf2-Keap1 nuclear translocation functional assay (agonist format)
Type: cell-based
EXPERIMENTAL_CONTEXT: single concentration of 10 μM, in duplicate; agonist mode, 6 hours; normalized to control ligand (CDDO methyl ester) and vehicle
ENDPOINT: activation at 10 µM

Kindly note the recorded activation at 10 µM for C=C1CC[C@@H]2[C@]3(C)COS(=O)O[C@@H]3CC[C@@]2(C)[C@@H]1C/C=C1/C(=O)OC[C@H]1NC(=O)OC (single isomer, unassigned) , which is 51 to 100%

Kindly note the recorded activation at 10 µM for `C=C1CC[C@@H]2[C@]3(C)C=NO[C@@H]3CC[C@@]2(C)[C@@H]1C/C=C1/C(=O)OC[C@H]1O` , which is 51 to 100%

Kindly note the recorded activation at 10 µM for C=C1CC[C@@H]2[C@]3(C)COS(=O)O[C@@H]3CC[C@@]2(C)[C@@H]1C/C=C1/C(=O)OCC1NC(=O)COC (some centres unmarked) [Example 40A] , which is 51 to 100%

Kindly note the recorded activation at 10 µM for C=C1CC[C@@H]2[C@]3(C)COS(=O)O[C@@H]3CC[C@@]2(C)[C@@H]1C/C=C1/C(=O)OC[C@@H]1NC(=O)OC (single isomer, unassigned) , which is > 100%

Now take the following molecule into account.
Kindly note the recorded activation at 10 µM for C=C1CC[C@@H]2[C@]3(C)COS(=O)O[C@@H]3CC[C@@]2(C)[C@@H]1C/C=C1/C(=O)OCC1NC(=O)COC (single isomer, unassigned) [Example 40B] , which is > 100%

* * *

Consider the following molecules and their measured EC50 readings.
STUDY_TARGET: Nrf2-Keap1 (Homo sapiens)
TEST: DiscoveRx PathHunter Nrf2-Keap1 nuclear translocation functional assay (agonist format)
EXPERIMENTAL_CONTEXT: 10 concentrations, 3-fold serial dilutions, 30 μM top concentration, in duplicate; agonist mode; normalized to CDDO methyl ester and vehicle

// molecule CC1=CC[C@@H]2[C@@H](C)[C@H](O)CC[C@@]2(C)[C@@H]1C/C=C1/C(=O)OC[C@H]1O [Example 3] , assay Nrf2-Keap1 (Homo sapiens), EC50 value: < 500 nM

// molecule C=C1CC[C@@H]2[C@]3(C)COCO[C@@H]3CC[C@@]2(C)[C@@H]1C/C=C1/C(=O)OCC1NC(C)=O (single isomer, unassigned) [Example 45B] , assay Nrf2-Keap1 (Homo sapiens), EC50 value: > 2000 nM

// molecule CC1=CC[C@@H]2[C@@H](C)[C@@](O)(C(F)(F)F)CC[C@@]2(C)[C@@H]1C/C=C1/C(=O)OC[C@H]1O [Example 48] , assay Nrf2-Keap1 (Homo sapiens), EC50 value: > 2000 nM

// molecule C=C1CC[C@H]2[C@@](C)(CC[C@@]3(C)OS(=O)OC[C@@]23C)[C@@H]1C/C=C1/C(=O)OCC1NC=O (some centres unmarked) [Example 22] , assay Nrf2-Keap1 (Homo sapiens), EC50 value: 500 to 2000 nM

Now take the following molecule into account.
// molecule C=C1CC[C@@H]2[C@]3(C)C=NO[C@@H]3CC[C@@]2(C)[C@@H]1C/C=C1/C(=O)OC[C@H]1O [Example 12] , assay Nrf2-Keap1 (Homo sapiens), EC50 value: 500 to 2000 nM
